targetOrTestSystem: T1, CRBN, Q96SW2;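 further: pooled lentiviral library of zinc finger degron-EGFP fusions in mCherry-positive Jurkat cells, FACS-sorted after compound exposure, with degron abundance counted by next-generation sequencing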
T1 chain: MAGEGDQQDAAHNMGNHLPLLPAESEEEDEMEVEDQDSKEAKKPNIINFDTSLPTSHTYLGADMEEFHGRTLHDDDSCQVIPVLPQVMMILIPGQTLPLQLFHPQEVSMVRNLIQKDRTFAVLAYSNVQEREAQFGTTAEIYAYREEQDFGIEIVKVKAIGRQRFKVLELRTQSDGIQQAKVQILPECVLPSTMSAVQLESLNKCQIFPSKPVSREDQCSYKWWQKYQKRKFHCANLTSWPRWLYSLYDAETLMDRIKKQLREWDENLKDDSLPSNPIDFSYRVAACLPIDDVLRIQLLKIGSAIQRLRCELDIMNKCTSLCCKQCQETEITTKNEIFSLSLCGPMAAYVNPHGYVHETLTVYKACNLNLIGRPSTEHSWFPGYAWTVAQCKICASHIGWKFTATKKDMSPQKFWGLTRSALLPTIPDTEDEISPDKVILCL
measurementDescription: log2 fold change of degron read counts, EGFP-low vs EGFP+ sorted cells (limma voom), compound-induced degradation; higher = more compound-induced degradation of the degron-EGFP fusion; degrons are variants of IKZF1/3 zinc finger 2; compound dose not given here
particulars: Jurkat; 18 h; compound: compound 33 (diphenyl IMiD analogue)
Over roughly 8,300 sequences, “log2 fold change of degron read counts, EGFP-low vs EGFP+ sorted cells (limma voom), compound-induced degradation” has its median near -1.1; the highest 2% begin near 3.2. For the sample, the highest values were picked, then their nearest neighbours and some sequences at random.
Could you please report measured log2 fold change of degron read counts for the items listed next?
Reply with the value as a number alone.

Query: Provide one value: measured log2 fold change of degron read counts of FQCPVCGACFTQKGNLLRHIKL [46F_47Q_49P_50V_52G_53A_54C_55F_67L_, Q9UKT9]
Reply: 2.39

Query: Provide one value: measured log2 fold change of degron read counts of FSCPVCGACFTQKGNLLRHIKL [46F_47S_49P_50V_52G_53A_54C_55F_67L_, Q9UKT9]
Reply: 2.73

Query: Provide one value: measured log2 fold change of degron read counts of LMCEICGFQCTQKGNLLRHIKL [46L_47M_49E_50I_52G_53F_54Q_55C_67L_, Q9UKT9]
Reply: 2.55

Query: Provide one value: measured log2 fold change of degron read counts of FWCDVCGACFTQKGNLLRHIKL [46F_47W_49D_50V_52G_53A_54C_55F_67L_, Q9UKT9]
Reply: 1.12

Query: Provide one value: measured log2 fold change of degron read counts of LQCEICGFQCTQKGNLLRHIKL [46L_47Q_49E_50I_52G_53F_54Q_55C_67L_, Q9UKT9]
Reply: 1.43

Query: Provide one value: measured log2 fold change of degron read counts of LSCEICGFQCTQKGNLLRHIKL [46L_47S_49E_50I_52G_53F_54Q_55C_67L_, Q9UKT9]
Reply: 0.752

Query: Provide one value: measured log2 fold change of degron read counts of LCCEICGFQCTQKGNLLRHIKL [46L_47C_49E_50I_52G_53F_54Q_55C_67L_, Q9UKT9]
Reply: 1.6

Query: Provide one value: measured log2 fold change of degron read counts of LTCEICGFGCTQKGNLLRHIKL [46L_47T_49E_50I_52G_53F_54G_55C_67L_, Q9UKT9]
Reply: 0.337

Query: Provide one value: measured log2 fold change of degron read counts of FFCNQCGHLFTQKGNLLRHIKL [46F_47F_49N_50Q_52G_53H_54L_55F_67L_, Q9UKT9]
Reply: -1.87

Query: Provide one value: measured log2 fold change of degron read counts of FECNQCGATFTQKGNLLRHIKL [46F_47E_49N_50Q_52G_53A_54T_55F_67L_, Q9UKT9]
Reply: -2.92

Query: Provide one value: measured log2 fold change of degron read counts of LFCNQCGFNCTQKGNLLRHIKL [46L_47F_49N_50Q_52G_53F_54N_55C_67L_, Q9UKT9]
Reply: -1.92

Query: Provide one value: measured log2 fold change of degron read counts of LICEICGFQCTQKGNLLRHIKL [46L_47I_49E_50I_52G_53F_54Q_55C_67L_, Q9UKT9]
Reply: 2.38

Query: Provide one value: measured log2 fold change of degron read counts of FKCPQCGACFTQKGNLLRHIKL [46F_47K_49P_50Q_52G_53A_54C_55F_67L_, Q9UKT9]
Reply: -3.29
